Assay: Human HepG2 cell viability assay in 384 well format
Format: toxicity, cell-based
Design: dose 125 nL, time 70.5 hour; concentration not given beside the values
Details: HepG2 cells, read-out: Inhibition
# cytotoxicity at 70.5 h per entry

| compound | cytotoxicity at 70.5 h (%) |
| --- | --- |
| c1cc(CN2CCC3(CCOCC3COCC3CC3)CC2)co1 (configuration not stated) | -4.78 |
| CCCN1CCN(C(=O)Cc2nc(-c3ccco3)oc2C)CC1 | -7.9 |
| CN(CCC#N)C(=O)CCOc1cccc(F)c1 | 13 |
| CC(C)Oc1ccccc1C1CC(=O)Nc2nc(N3CCOCC3)sc21 (configuration not stated) | -13.2 |
| O=C(CN1CCc2c(ncn2C2CC2)C1)NC1CCN(C2CC2)CC1 | 16.5 |
| Cc1ccc(-n2nnnc2SCN2CCCCC2=O)cc1C | -3.89 |
| Cc1cc(C(=O)N2C[C@@H]3COC[C@]3(COCc3cccnc3)C2)no1 | -12 |
| Cn1ccc(C(=O)NC2CCC23CCN(C(=O)c2ccncc2)CC3)c1 (configuration not stated) | -6.03 |
| CCS(=O)(=O)N1CCC2(CN(c3cccc(F)c3)C(=O)CN2C)C1 (configuration not stated) | -8.93 |
| COc1cccc(-n2nnc(C(=O)N3CCCCCC3)c2C)c1 | -12.9 |
| CN(Cc1nc2ccccc2o1)C1CCCN(c2cccnn2)C1 (configuration not stated) | 4.68 |
| O=S1(=O)CCN2C(=N1)Oc1ccc(Cl)cc12 | 23.7 |

Source listed as ChEMBL document CHEMBL3507680.
